# System: human cardiomyocytes
# assay.procedure: recording of human cardiomyocyte beating patterns
# Type: cell-based
# protocol.conditions: 10 μM, 8 h
measurement.name: Beating rate of human cardiomyocytes (beats/minute)
Give bare numbers, in beats/minute.

compound	measurement.name	uom	recorded.measurement
CC(C)OC(=O)CCc1ccccc1OP(=O)(N[C@@H](C)C(=O)OC(C)C)OC[C@H]1O[C@@H](n2cnc3c(N)nc(N)nc32)[C@](C)(O)[C@@H]1O (stereo partly shown) [DAPN-PD]	Beating rate of human cardiomyocytes	beats/minute	26.0
CC(C)OC(=O)[C@H](C)N[P@](=O)(OC[C@H]1O[C@@H](n2ccc(=O)[nH]c2=O)[C@](C)(F)[C@@H]1O)Oc1ccccc1 [Sofosbuvir, sofosbuvir]	Beating rate of human cardiomyocytes	beats/minute	35.0
CC(C)(CO)C(=O)SCCOP(=O)(NCc1ccccc1)OC[C@H]1O[C@@H](n2cnc3c(=O)[nH]c(N)nc32)[C@](C)(O)[C@@H]1O (mixture of isomers) [IDX-184]	Beating rate of human cardiomyocytes	beats/minute	34.0

[in] Which Beating rate of human cardiomyocytes value is on record for COc1nc(N)nc2c1ncn2[C@@H]1O[C@H](COP(=O)(N[C@@H](C)C(=O)OCC(C)(C)C)Oc2cccc3ccccc23)[C@@H](O)[C@@]1(C)O (stereo partly shown) [BMS-986094] ?
[out] 35.0

* * *

For each of the molecules below, state its Beating rate of human cardiomyocytes.
# Test system: human cardiomyocytes
# assay.procedure: recording of human cardiomyocyte beating patterns
# Format: cell-based
# protocol.conditions: 50 μM, 48 h
Answers are plain numbers, in beats/minute.

molecule	uom	recorded.measurement
CC(C)OC(=O)[C@H](C)N[P@](=O)(OC[C@H]1O[C@@H](n2ccc(=O)[nH]c2=O)[C@](C)(F)[C@@H]1O)Oc1ccccc1 [Sofosbuvir, sofosbuvir]	beats/minute	23.5
CC(C)OC(=O)CCc1ccccc1OP(=O)(N[C@@H](C)C(=O)OC(C)C)OC[C@H]1O[C@@H](n2cnc3c(N)nc(N)nc32)[C@](C)(O)[C@@H]1O (stereo partly shown) [DAPN-PD]	beats/minute	17.0
CC(C)(CO)C(=O)SCCOP(=O)(NCc1ccccc1)OC[C@H]1O[C@@H](n2cnc3c(=O)[nH]c(N)nc32)[C@](C)(O)[C@@H]1O (mixture of isomers) [IDX-184]	beats/minute	27.5

[in] Which Beating rate of human cardiomyocytes value is on record for COc1nc(N)nc2c1ncn2[C@@H]1O[C@H](COP(=O)(N[C@@H](C)C(=O)OCC(C)(C)C)Oc2cccc3ccccc23)[C@@H](O)[C@@]1(C)O (stereo partly shown) [BMS-986094] ?
[out] 0

* * *

For each of the compounds below, state its Beating rate of human cardiomyocytes.
# Tested on: human cardiomyocytes
# assay.procedure: recording of human cardiomyocyte beating patterns
# Assay type: cell-based
# protocol.conditions: 50 μM, 4 h
One number for each entry, in beats/minute.

compound	assay.target	Beating rate of human cardiomyocytes / beats/minute
CC(C)OC(=O)[C@H](C)N[P@](=O)(OC[C@H]1O[C@@H](n2ccc(=O)[nH]c2=O)[C@](C)(F)[C@@H]1O)Oc1ccccc1	human cardiomyocytes	32.0
CC(C)OC(=O)CCc1ccccc1OP(=O)(N[C@@H](C)C(=O)OC(C)C)OC[C@H]1O[C@@H](n2cnc3c(N)nc(N)nc32)[C@](C)(O)[C@@H]1O (stereo partly shown)	human cardiomyocytes	21.0
CC(C)(CO)C(=O)SCCOP(=O)(NCc1ccccc1)OC[C@H]1O[C@@H](n2cnc3c(=O)[nH]c(N)nc32)[C@](C)(O)[C@@H]1O (mixture of isomers)	human cardiomyocytes	31.5

Moving on to another compound below.
[in] What Beating rate of human cardiomyocytes appears in the records for this compound with human cardiomyocytes? COc1nc(N)nc2c1ncn2[C@@H]1O[C@H](COP(=O)(N[C@@H](C)C(=O)OCC(C)(C)C)Oc2cccc3ccccc23)[C@@H](O)[C@@]1(C)O (stereo partly shown)
[out] 0
